# target.under.test: Tyrosine-protein phosphatase non-receptor type 11 (Homo sapiens)
# Sequence (Q06124 whole entry): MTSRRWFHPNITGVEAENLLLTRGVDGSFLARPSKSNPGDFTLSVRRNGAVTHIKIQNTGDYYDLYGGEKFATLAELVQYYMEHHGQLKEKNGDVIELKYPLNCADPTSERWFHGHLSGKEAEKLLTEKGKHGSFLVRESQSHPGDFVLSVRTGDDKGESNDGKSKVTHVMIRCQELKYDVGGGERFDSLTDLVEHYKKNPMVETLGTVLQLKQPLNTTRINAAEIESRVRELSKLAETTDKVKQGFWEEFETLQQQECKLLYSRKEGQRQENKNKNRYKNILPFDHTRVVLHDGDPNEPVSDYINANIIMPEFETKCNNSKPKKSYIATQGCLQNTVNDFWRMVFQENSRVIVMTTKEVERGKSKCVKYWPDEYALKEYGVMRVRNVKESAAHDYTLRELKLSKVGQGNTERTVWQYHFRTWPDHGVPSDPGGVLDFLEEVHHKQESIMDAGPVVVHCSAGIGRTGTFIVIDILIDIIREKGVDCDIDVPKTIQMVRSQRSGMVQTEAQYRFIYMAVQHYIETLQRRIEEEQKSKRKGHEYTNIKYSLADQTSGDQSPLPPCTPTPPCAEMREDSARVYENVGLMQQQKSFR
# protocol.text: Allosteric Inhibition of H2N-LN(pY)IDLDLV(dPEG8)LST(pY)ASINFQKASINFQK-amide-activated SHP2 (unknown origin) using DiFMUP as substrate pretreated with enzyme for 1 hr followed by substrate addition and measured after 20 mins by fluorescence based analysis
Field 'label' (enum: 1.0 / 0.0). Set to 1.0 when IC50 is strictly under 200 nM; else 0.0.

In plain terms, does `N/C(=N\c1ncccn1)N1CCN(c2cnc(-c3cccc(Cl)c3Cl)c(N)n2)CC1` come in under 200 nM for IC50?
0.0

Find out if reported IC50 for `N/C(=N\c1ccc(C(F)(F)F)cc1)N1CCN(c2cnc(-c3cccc(Cl)c3Cl)c(N)n2)CC1` is less than 200 nM
1.0

Does the reported IC50 of `NC(=S)N1CCN(c2cnc(-c3cccc(Cl)c3Cl)c(N)n2)CC1` stay below 200 nM?
0.0

Given the entry `N/C(=N\c1ccccc1)N1CCN(c2cnc(-c3cccc(Cl)c3Cl)c(N)n2)CC1` , would its reported IC50 be below 200 nM?
1.0

Below 200 nM on IC50? Entry `COc1ccc(/N=C(\N)N2CCN(c3cnc(-c4cccc(Cl)c4Cl)c(N)n3)CC2)cc1`
1.0

Next:
Lab note: confirm whether the reported IC50 for this compound is below 200 nM, equality not counting. compound: `N/C(=N\C(=O)c1ccncc1)N1CCN(c2cnc(-c3cccc(Cl)c3Cl)c(N)n2)CC1`
0.0

Here's an entry: `N/C(=N\c1cnccn1)N1CCN(c2cnc(-c3cccc(Cl)c3Cl)c(N)n2)CC1` . Is its IC50 below 200 nM?
0.0

Is IC50 of `N=C(N)N1CCN(c2cnc(-c3cccc(Cl)c3Cl)c(N)n2)CC1` strictly below 200 nM?
0.0

For this compound, is IC50 lower than 200 nM? `NC(=O)N1CCN(c2cnc(-c3cccc(Cl)c3Cl)c(N)n2)CC1`
0.0

Quick check: does `COc1ccccc1/N=C(\N)N1CCN(c2cnc(-c3cccc(Cl)c3Cl)c(N)n2)CC1` have IC50 under 200 nM?
1.0

I'd appreciate it if you could check whether `N#Cc1ccc(/N=C(\N)N2CCN(c3cnc(-c4cccc(Cl)c4Cl)c(N)n3)CC2)cn1` has IC50 smaller than 200 nM.
1.0

Identify whether the compound `N#Cc1ccc(/N=C(\N)N2CCN(c3cnc(-c4cccc(Cl)c4Cl)cn3)CC2)cc1` records IC50 below 200 nM.
0.0

Lab note: confirm whether the reported IC50 for this compound is below 200 nM, equality not counting. compound: `N/C(=N\c1ccc(F)cc1)N1CCN(c2cnc(-c3cccc(Cl)c3Cl)c(N)n2)CC1`
1.0

Given the entry `N#Cc1ccc(/N=C(\N)N2CCN(c3cnc(Sc4cccnc4C(F)(F)F)c(N)n3)CC2)cc1` , would its reported IC50 be below 200 nM?
1.0

Identify whether the compound `CNC(=O)c1ccc(/N=C(\N)N2CCN(c3cnc(-c4cccc(Cl)c4Cl)c(N)n3)CC2)cc1` records IC50 below 200 nM.
0.0
